- target_system: β1-adrenergic receptor (Homo sapiens (Human), UniProt P08588)
- Sequence (P08588 whole entry, species assumed): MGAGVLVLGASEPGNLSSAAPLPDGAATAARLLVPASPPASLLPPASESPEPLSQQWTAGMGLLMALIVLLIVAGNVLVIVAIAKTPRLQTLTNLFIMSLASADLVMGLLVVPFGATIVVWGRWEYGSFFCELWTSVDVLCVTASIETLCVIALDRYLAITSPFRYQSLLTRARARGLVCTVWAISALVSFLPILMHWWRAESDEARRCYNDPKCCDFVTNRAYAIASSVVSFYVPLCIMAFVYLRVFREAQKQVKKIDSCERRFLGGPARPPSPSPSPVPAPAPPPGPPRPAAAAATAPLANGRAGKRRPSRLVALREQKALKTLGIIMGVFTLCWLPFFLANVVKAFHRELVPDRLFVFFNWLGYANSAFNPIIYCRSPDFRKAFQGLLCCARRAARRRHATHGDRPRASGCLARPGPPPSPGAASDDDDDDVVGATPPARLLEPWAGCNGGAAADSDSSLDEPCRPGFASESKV
- experimental_details: cAMP Gs dynamic HTRF assay, β1 expressing CHO cells
- Type: cell-based
- experimental_parameters: B1-AR; CHO-K cells; read-out: Average EC50 [Receptor subtype: B1-AR; Cell type: CHO-K]
pEC50: −log10 of the molar value.
Below is a list of entries, each paired with its recorded pEC50 value.

Reference set, count: 10
CC(C)c1cccc([C@@H](O)CNC(C)(C)C)n1; 7.00 to 8.00
Cc1ccccc1-c1cccc([C@@H](O)CNC(C)(C)C)n1; 6.00 to 7.00
COc1ccc(CC(C)(C)NC[C@H](O)c2cccc(C(F)(F)F)n2)cc1; 7.00 to 8.00
CC(C)(C)NC[C@H](O)c1cccc(C2CCOCC2)n1; 7.00 to 8.00
CC(C)(C)NC[C@H](O)c1cccc(-c2ccccc2)n1; 7.00 to 8.00
O[C@@H](CNC1CCC1)c1cccc(C(F)(F)F)n1; > 8.00
CC(C)(C)NC[C@H](O)c1ccc(C#N)c(C(F)(F)F)n1; 6.00 to 7.00
Cc1ccc([C@H](O)CNC(C)(C)C)nc1C(F)(F)F; 7.00 to 8.00
CC(C)(C)NC[C@@H](O)c1ccc2cccc(C(F)(F)F)c2n1; 6.00 to 7.00
Cc1cccc(-c2cccc([C@@H](O)CNC(C)(C)C)n2)c1; 7.00 to 8.00

Input: Please give the measured pEC50 for this compound: COc1ncccc1[C@@H](O)CNC(C)(C)C
Output: > 8.00

Input: Please give the measured pEC50 for this compound: Cc1cccc([C@H](O)CNC(C)(C)C)n1
Output: < 6.00

Input: Please give the measured pEC50 for this compound: CCN(CC)c1cccc([C@H](O)CNC(C)(C)C)n1
Output: 6.00 to 7.00

Input: Please give the measured pEC50 for this compound: COc1ccc(C[C@@H](C)NC[C@H](O)c2cccc(C(F)(F)F)n2)cc1
Output: > 8.00

The origin of these recorded values is patent US10947196B2.
